Molecular target: human AspH (His6-AspH315–758) (Homo sapiens, UniProt Q12797)
Construct: N-Terminally His6-tagged human AspH315–758 (His6-AspH315–758) was produced in Escherichia coli BL21 (DE3) cells; made in house; host or cells: Escherichia coli BL21 (DE3), pET-28a(+) vector
Sequence (Q12797 315-758): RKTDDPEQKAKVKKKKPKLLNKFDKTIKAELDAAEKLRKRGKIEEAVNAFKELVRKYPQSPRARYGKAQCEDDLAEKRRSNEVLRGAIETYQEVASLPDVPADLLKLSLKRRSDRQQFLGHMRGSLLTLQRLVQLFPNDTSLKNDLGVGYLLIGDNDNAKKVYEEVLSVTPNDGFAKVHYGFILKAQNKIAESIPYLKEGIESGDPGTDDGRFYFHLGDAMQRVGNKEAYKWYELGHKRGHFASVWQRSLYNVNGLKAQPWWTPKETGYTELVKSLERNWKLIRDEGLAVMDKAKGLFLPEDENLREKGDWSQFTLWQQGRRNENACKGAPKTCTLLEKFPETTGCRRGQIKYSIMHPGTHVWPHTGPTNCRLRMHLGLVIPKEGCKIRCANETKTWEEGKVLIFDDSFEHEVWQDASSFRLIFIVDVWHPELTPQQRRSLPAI
Assay: SPE-MS AspH inhibition assay (hFX-CP101-119 substrate hydroxylation)
Assay type: biochemical
Settings: AspH-inhibitor screening, 384-well Plate 1, substrate conversion
Reported Plate 1 (% conversion) values follow for various molecules
Report as a plain number; the unit % is understood.

Known results for molecules:
The recorded Plate 1 (% conversion) with human AspH (His6-AspH315–758) (Homo sapiens, UniProt Q12797) for `COc1ccc(-c2ccc3c(N4CCOC[C@@H]4C)nc(N4CCOC[C@@H]4C)nc3n2)cc1CO` was 49.59

The recorded Plate 1 (% conversion) with human AspH (His6-AspH315–758) (Homo sapiens, UniProt Q12797) for `CN1CCN(c2nc(C3=C(c4c[nH]c5ccccc45)C(=O)NC3=O)c3ccccc3n2)CC1` was 40.26

The recorded Plate 1 (% conversion) with human AspH (His6-AspH315–758) (Homo sapiens, UniProt Q12797) for `CCN(CCO)CCCOc1ccc2c(Nc3cc(CC(=O)Nc4cccc(F)c4)[nH]n3)ncnc2c1` was 49.20

The recorded Plate 1 (% conversion) with human AspH (His6-AspH315–758) (Homo sapiens, UniProt Q12797) for `CC[C@@H]1C(=O)OC[C@@H]1Cc1cncn1C` was 48.27

The recorded Plate 1 (% conversion) with human AspH (His6-AspH315–758) (Homo sapiens, UniProt Q12797) for `COc1c(C)cnc(Cn2cnc3c(Cl)nc(N)nc32)c1C` was 47.14

Okay, now this molecule:
The recorded Plate 1 (% conversion) with human AspH (His6-AspH315–758) (Homo sapiens, UniProt Q12797) for O=C1CCC(N2C(=O)c3ccccc3C2=O)C(=O)N1 (stereo not shown) [Thalidomide] was 48.29
